Assay: Tissue distribution of Compound A in mice with mammary C/16 adenocarcinomas (first method: liver, heart, kidney, lung, spleen, tumor)
Format: in vivo, C3H/HeN female mice
Details: mouse, tumor/plasma, iv, 40 mg/kg, 24 h; mice with tumors; single mice; read-out: Tissue/Plasma Ratio, TUMOR
MEASURED ENDPOINT: Kp at 24 h
Response field accepts a number only; no unit should be typed.

Lookup: Item under review: CC(=O)O[C@H]1C(=O)[C@]23C[C@H]2C[C@H]2OC[C@@]2(OC(C)=O)[C@H]3[C@H](OC(=O)c2ccccc2)[C@]2(O)C[C@H](OC(=O)[C@H](O)[C@@H](NC(=O)OC(C)(C)C)c3ccccc3)C(C)=C1C2(C)C [Compound A] . Reported Kp at 24 h?
Found: 2.79

---

Experiment: Tissue distribution of Compound A in mice with mammary C/16 adenocarcinomas (first method: liver, heart, kidney, lung, spleen, tumor)
Assay type: in vivo, C3H/HeN female mice
Settings: mouse, liver/plasma, iv, 40 mg/kg, 1 h; mice with tumors; single mice; read-out: Tissue/Plasma Ratio, LIVER
Protocol: Mammary C/16 adenocarcinomas were implanted in C3H/HeN female mice. […] The body weight and date of implantation were recorded for each mouse. […] The plasma and tissue samples were then analyzed for the concentration of Compound A. The plasma was assayed by high pressure liquid chromatography with spectrophotometric detection. For the tissue, liver, heart, kidney, lung, spleen and tumor tissue, samples were assayed by a first method, while a second method was used for the brain tissue analyzed. […]
MEASURED ENDPOINT: Kp at 1 h
Response field accepts a number only; no unit should be typed.

Lookup: Item under review: "CC(=O)O[C@H]1C(=O)[C@]23C[C@H]2C[C@H]2OC[C@@]2(OC(C)=O)[C@H]3[C@H](OC(=O)c2ccccc2)[C@]2(O)C[C@H](OC(=O)[C@H](O)[C@@H](NC(=O)OC(C)(C)C)c3ccccc3)C(C)=C1C2(C)C" . Reported Kp at 1 h?
Found: 1.71

---

Assay: Brain distribution of Compound A in mice with mammary C/16 adenocarcinomas (second method, brain tissue)
Format: in vivo, C3H/HeN female mice
Settings: mouse, brain, iv, 40 mg/kg, 0.08 h; 40 μg/kg [sic]; single mice, MEAN=b257; read-out: Brain CONC.
MEASURED ENDPOINT: concentration at 0.08 h
# output: number + unit

Lookup: Item under review: "CC(=O)O[C@H]1C(=O)[C@]23C[C@H]2C[C@H]2OC[C@@]2(OC(C)=O)[C@H]3[C@H](OC(=O)c2ccccc2)[C@]2(O)C[C@H](OC(=O)[C@H](O)[C@@H](NC(=O)OC(C)(C)C)c3ccccc3)C(C)=C1C2(C)C" . Reported concentration at 0.08 h?
Found: 13500 ng/g

---

Assay: Brain distribution of Compound A in mice with mammary C/16 adenocarcinomas (second method, brain tissue)
Type: in vivo, C3H/HeN female mice
Details: mouse, brain, iv, 40 mg/kg, 0.03 h; 40 μg/kg [sic]; single mice; read-out: Brain CONC.
MEASURED ENDPOINT: concentration at 0.03 h (ng/g)
Record the value in ng/g, omitting the unit from your answer.

Lookup: Item under review: CC(=O)O[C@H]1C(=O)[C@]23C[C@H]2C[C@H]2OC[C@@]2(OC(C)=O)[C@H]3[C@H](OC(=O)c2ccccc2)[C@]2(O)C[C@H](OC(=O)[C@H](O)[C@@H](NC(=O)OC(C)(C)C)c3ccccc3)C(C)=C1C2(C)C [Compound A] . Reported concentration at 0.03 h?
Found: 9800

---

Assay: Tissue distribution of Compound A in mice with mammary C/16 adenocarcinomas (first method: liver, heart, kidney, lung, spleen, tumor)
Type: in vivo, C3H/HeN female mice
Settings: mouse, tumor/plasma, iv, dose 9.5; 0.75 h; single mice; read-out: Tumor/Plasma Ratio
MEASURED ENDPOINT: Kp at 0.75 h
Response field accepts a number only; no unit should be typed.

Lookup: Item under review: CC(=O)O[C@H]1C(=O)[C@]23C[C@H]2C[C@H]2OC[C@@]2(OC(C)=O)[C@H]3[C@H](OC(=O)c2ccccc2)[C@]2(O)C[C@H](OC(=O)[C@H](O)[C@@H](NC(=O)OC(C)(C)C)c3ccccc3)C(C)=C1C2(C)C [Compound A] . Reported Kp at 0.75 h?
Found: 0.94

---

Test: Brain distribution of Compound A in mice with mammary C/16 adenocarcinomas (second method, brain tissue)
Format: in vivo, C3H/HeN female mice
Conditions: mouse, brain, iv, 40 mg/kg; read-out: t 1/2, Brain (converted)
Protocol: Mammary C/16 adenocarcinomas were implanted in C3H/HeN female mice. […] The body weight and date of implantation were recorded for each mouse. […] The plasma and tissue samples were then analyzed for the concentration of Compound A. The plasma was assayed by high pressure liquid chromatography with spectrophotometric detection. For the tissue, liver, heart, kidney, lung, spleen and tumor tissue, samples were assayed by a first method, while a second method was used for the brain tissue analyzed. […]
MEASURED ENDPOINT: half-life (h)
Record the value in h, omitting the unit from your answer.

Lookup: Item under review: CC(=O)O[C@H]1C(=O)[C@]23C[C@H]2C[C@H]2OC[C@@]2(OC(C)=O)[C@H]3[C@H](OC(=O)c2ccccc2)[C@]2(O)C[C@H](OC(=O)[C@H](O)[C@@H](NC(=O)OC(C)(C)C)c3ccccc3)C(C)=C1C2(C)C [Compound A] . Reported half-life?
Found: 47.6

---

Assay: Tissue distribution of Compound A in mice with mammary C/16 adenocarcinomas (first method: liver, heart, kidney, lung, spleen, tumor)
Format: in vivo, C3H/HeN female mice
Conditions: mouse, liver, iv, 40 mg/kg; read-out: t 1/2, Liver (converted)
MEASURED ENDPOINT: half-life

Lookup: Item under review: "CC(=O)O[C@H]1C(=O)[C@]23C[C@H]2C[C@H]2OC[C@@]2(OC(C)=O)[C@H]3[C@H](OC(=O)c2ccccc2)[C@]2(O)C[C@H](OC(=O)[C@H](O)[C@@H](NC(=O)OC(C)(C)C)c3ccccc3)C(C)=C1C2(C)C" . Reported half-life?
Found: 3.1 h

---

Assay: Tissue distribution of Compound A in mice with mammary C/16 adenocarcinomas (first method: liver, heart, kidney, lung, spleen, tumor)
Type: in vivo, C3H/HeN female mice
Settings: mouse, tumor/plasma, iv, dose 24.8; 0.083 h; single mice; read-out: Tumor/Plasma Ratio
MEASURED ENDPOINT: Kp at 0.083 h
Response field accepts a number only; no unit should be typed.

Lookup: Item under review: CC(=O)O[C@H]1C(=O)[C@]23C[C@H]2C[C@H]2OC[C@@]2(OC(C)=O)[C@H]3[C@H](OC(=O)c2ccccc2)[C@]2(O)C[C@H](OC(=O)[C@H](O)[C@@H](NC(=O)OC(C)(C)C)c3ccccc3)C(C)=C1C2(C)C [Compound A] . Reported Kp at 0.083 h?
Found: 0.28

---

Experiment: Tissue distribution of Compound A in mice with mammary C/16 adenocarcinomas (first method: liver, heart, kidney, lung, spleen, tumor)
Format: in vivo, C3H/HeN female mice
Settings: mouse, lung/plasma, iv, 40 mg/kg, 0.50 h; 40 μg/kg [sic]; mice with tumors; single mice; read-out: Tissue/Plasma Ratio, LUNG
MEASURED ENDPOINT: Kp at 0.5 h
Response field accepts a number only; no unit should be typed.

Lookup: Item under review: "CC(=O)O[C@H]1C(=O)[C@]23C[C@H]2C[C@H]2OC[C@@]2(OC(C)=O)[C@H]3[C@H](OC(=O)c2ccccc2)[C@]2(O)C[C@H](OC(=O)[C@H](O)[C@@H](NC(=O)OC(C)(C)C)c3ccccc3)C(C)=C1C2(C)C" . Reported Kp at 0.5 h?
Found: 1.27

---

Test: Tissue distribution of Compound A in mice with mammary C/16 adenocarcinomas (first method: liver, heart, kidney, lung, spleen, tumor)
Format: in vivo, C3H/HeN female mice
Conditions: mouse, tumor/plasma, iv, dose 24.8; 0.75 h; single mice; read-out: Tumor/Plasma Ratio
MEASURED ENDPOINT: Kp at 0.75 h
Response field accepts a number only; no unit should be typed.

Lookup: Item under review: CC(=O)O[C@H]1C(=O)[C@]23C[C@H]2C[C@H]2OC[C@@]2(OC(C)=O)[C@H]3[C@H](OC(=O)c2ccccc2)[C@]2(O)C[C@H](OC(=O)[C@H](O)[C@@H](NC(=O)OC(C)(C)C)c3ccccc3)C(C)=C1C2(C)C [Compound A] . Reported Kp at 0.75 h?
Found: 1.14

---

Assay: Plasma kinetics of Compound A after i.v. injection in mice (HPLC)
Assay type: in vivo, C3H/HeN female mice
Settings: mouse, plasma, iv; dose = 40 mg/kg; read-out: AUC 0 to Infinity, Plasma
Method: Mammary C/16 adenocarcinomas were implanted in C3H/HeN female mice. […] The body weight and date of implantation were recorded for each mouse. […] The plasma and tissue samples were then analyzed for the concentration of Compound A. The plasma was assayed by high pressure liquid chromatography with spectrophotometric detection. For the tissue, liver, heart, kidney, lung, spleen and tumor tissue, samples were assayed by a first method, while a second method was used for the brain tissue analyzed. […]
MEASURED ENDPOINT: AUC(0-inf) (ng·h/mL)
Record the value in ng·h/mL, omitting the unit from your answer.

Lookup: Item under review: "CC(=O)O[C@H]1C(=O)[C@]23C[C@H]2C[C@H]2OC[C@@]2(OC(C)=O)[C@H]3[C@H](OC(=O)c2ccccc2)[C@]2(O)C[C@H](OC(=O)[C@H](O)[C@@H](NC(=O)OC(C)(C)C)c3ccccc3)C(C)=C1C2(C)C" . Reported AUC(0-inf)?
Found: 58600
